Reported IC50 is given for each of the following compounds.
system: Staphylococcus aureus MW2 delta-mecA (mecA-); assay: IC50 (growth, competition assay); settings: fluorescent label: DsRed; cefoxitin: subinhibitory
measured_quantity: IC50

>>> reported_result("CC[C@@H](C(=O)[C@@H](C)[C@@H](O)[C@H](C)[C@@H]1O[C@@H]([C@@H](CC)C(=O)O)CC[C@@H]1C)[C@H]1O[C@]2(C=C[C@@H](O)[C@]3(CC[C@@](C)([C@H]4CC[C@](O)(CC)[C@H](C)O4)O3)O2)[C@H](C)C[C@@H]1C [KOKCISAN]")
"< 9.85 µM"
>>> reported_result("CC(C)CCC[C@@H](C)[C@H]1CC[C@H]2[C@@H]3CC[C@H]4CC(=O)CC[C@]4(C)[C@H]3CC[C@]12C [CHOLESTAN-3-ONE]")
"17.3 µM"
>>> reported_result("COc1cc(-c2ccc(/N=N/c3ccc4c(S(=O)(=O)O)cc(S(=O)(=O)O)c(N)c4c3O)c(OC)c2)ccc1/N=N/c1ccc2c(S(=O)(=O)O)cc(S(=O)(=O)O)c(N)c2c1O [CHICAGO SKY BLUE]")
"< 9.85 µM"
>>> reported_result("CN(N=O)C(=O)N[C@@H]1[C@@H](O)[C@H](O)[C@@H](CO)O[C@@H]1O [ZANOSAR]")
"< 9.85 µM"
>>> reported_result("CCOC(=O)[C@H](CCc1ccccc1)N[C@@H](C)C(=O)N1Cc2ccccc2C[C@H]1C(=O)O [ACCUPRIL]")
"> 150 µM"
>>> reported_result("CC=CC1=C(C(=O)O)N2C(=O)[C@@H](NC(=O)[C@H](N)c3ccc(O)cc3)[C@H]2SC1 [CEFZIL]")
"< 9.85 µM"
